# tgt: GST-tagged KRAS-G12D (2-169) (Homo sapiens, UniProt P01116, G12D)
# Sequence (P01116 2-169 isoform P01116-2 G12D): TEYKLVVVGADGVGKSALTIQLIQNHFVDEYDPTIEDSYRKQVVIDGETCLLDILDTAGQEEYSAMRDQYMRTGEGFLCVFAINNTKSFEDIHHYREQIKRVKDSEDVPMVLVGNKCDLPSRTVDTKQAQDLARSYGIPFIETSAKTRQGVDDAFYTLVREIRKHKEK
# assay comment: Nucleotide exchange assay (NEA), SOS-mediated, HTRF, KRAS G12D
# Type: biochemical
# details: Table 4; IC50 extracted at 30 min; 20 nM SOScat; read-out: NEA G12D IC50
pIC50: −log10 of the molar value.
# pIC50 annotations

| compound | pIC50 |
| --- | --- |
| N#Cc1c(N)sc2c1C1(CC2)CN(c2nc(OC[C@@]34CCCN3C[C@H](F)C4)nc(N(CCO)Cc3cn[nH]c3)n2)C1 [Compound 137] | 6.00 to 7.00 |
| CC(c1cncnc1N)N(C)c1nc(OC[C@@]23CCCN2C[C@H](F)C3)nc(N2CC3(CCc4sc(N)c(C#N)c43)C2)n1 (stereo partly drawn) [Compound 108] | > 8.00 |
| N#Cc1c(N)sc2c1C1(CN(c3nc(OC[C@@]45CCCN4C[C@H](F)C5)nc(N4[C@H]5CC[C@@H]4C(=O)C5)n3)C1)SC2 [Compound 280] | 7.00 to 8.00 |
| CO/N=C(\C(C)=O)C(=O)N1[C@@H]2CC[C@H]1CN(c1nc(OC[C@@]34CCCN3C[C@H](F)C4)nc(N3CC4(C3)SCc3sc(N)c(C#N)c34)n1)C2 [Compound 161] | 4.70 to 6.00 |
| N#Cc1c(N)sc2c1C1(CN(c3nc(OC[C@@]45CCCN4C[C@H](F)C5)nc(N4C5CCC4CC(=O)C5)n3)C1)SC2 [Compound 273] | 6.00 to 7.00 |

In the following, a different compound is considered.
Identify measured pIC50 corresponding to CC(Nc1nc(OC[C@@]23CCCN2C[C@H](F)C3)nc(N2CC3(CCc4sc(N)c(C#N)c43)C2)n1)c1cccnc1N (stereo partly drawn) [Compound 88]
6.00 to 7.00

====

# tgt: GST-tagged KRAS-G12D (2-169) (Homo sapiens, UniProt P01116, G12D)
# assay comment: Nucleotide exchange assay (NEA), SOS-mediated, HTRF, KRAS G12D
# Type: biochemical
# details: Table 4; IC50 extracted at 30 min; 20 nM SOScat; read-out: NEA G12D IC50
observation type: IC50

| compound | tgt | IC50 |
| --- | --- | --- |
| C[C@]1(O)CN(c2nc(OC[C@@]34CCCN3C[C@H](F)C4)nc(N3CC4(CCc5sc(N)c(C#N)c54)C3)n2)CC[C@@H]1O (racemic) | GST-tagged KRAS-G12D (2-169) (Homo sapiens, UniProt P01116, G12D) | 100 to 1000 nM |
| C[C@@H]1[C@H](C#N)CCCN1c1nc(OC[C@@]23CCCN2C[C@H](F)C3)nc(N2CC3(CCc4sc(N)c(C#N)c43)C2)n1 (racemic) | GST-tagged KRAS-G12D (2-169) (Homo sapiens, UniProt P01116, G12D) | 100 to 1000 nM |
| C[C@@]1(CO)C[C@H](O)CN1c1nc(OC[C@@]23CCCN2C[C@H](F)C3)nc(N2CC3(CCc4sc(N)c(C#N)c43)C2)n1 | GST-tagged KRAS-G12D (2-169) (Homo sapiens, UniProt P01116, G12D) | 100 to 1000 nM |

Please indicate IC50 recorded for CC(c1nccnc1N)N(C)c1nc(OC[C@@]23CCCN2C[C@H](F)C3)nc(N2CC3(CCc4sc(N)c(C#N)c43)C2)n1 (stereo partly shown) [Compound 102]
10 to 100 nM

Provide only the value of recorded IC50 for CC(c1cccnc1N)N(CCO)c1nc(OC[C@@]23CCCN2C[C@H](F)C3)nc(N2CC3(CCc4sc(N)c(C#N)c43)C2)n1 (single isomer, unassigned) [Compound 122A]
< 10 nM

Quick one: give measured IC50 for CC(c1ccc(F)nc1N)N(C)c1nc(OC[C@@]23CCCN2C[C@H](F)C3)nc(N2CC3(CCc4sc(N)c(C#N)c43)C2)n1 (stereo partly shown)
10 to 100 nM

Quote IC50 reported for CCN(c1nc(OC[C@@]23CCCN2C[C@H](F)C3)nc(N2CC3(C2)SCc2sc(N)c(C#N)c23)n1)[C@@H](C)c1cccnc1N [Compound 139B] please.
< 10 nM

Item N#Cc1c(N)sc2c1C1(CN(c3nc(OC[C@@]45CCCN4C[C@H](F)C5)nc(N(CC4(O)CC4)C4(C#N)CC4)n3)C1)SC2 : provide IC50
10 to 100 nM

Quick one: give measured IC50 for CC(c1cccnc1N)N(C)c1nc(OC[C@@]23CCCN2C[C@H](F)C3)nc(N2CC3(CCc4sc(N)c(C#N)c43)C2)n1 (single isomer, unassigned) [Compound 100A]
< 10 nM

Input N#Cc1c(N)sc2c1C1(CC2)CN(c2nc(OCC3(O)CC3)nc(OC[C@@]34CCCN3C[C@H](F)C4)n2)C1 , output reported IC50.
1000 to 20000 nM

====

# tgt: GST-tagged KRAS-G12V (2-169) (Homo sapiens, UniProt P01116, G12V)
# Sequence (P01116 2-169 isoform P01116-2 G12V): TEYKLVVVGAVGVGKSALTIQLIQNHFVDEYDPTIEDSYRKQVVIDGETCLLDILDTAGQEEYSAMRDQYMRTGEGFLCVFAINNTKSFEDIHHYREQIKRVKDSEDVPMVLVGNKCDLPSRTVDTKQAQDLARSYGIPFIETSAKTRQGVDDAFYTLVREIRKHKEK
# assay comment: Nucleotide exchange assay (NEA), SOS-mediated, HTRF, KRAS G12V
# details: Table 4; IC50 extracted at 90 min; 80 nM SOS
pIC50: −log10 of the molar value.
Recorded pIC50 values for a group of molecules are listed next.

| molecule | tgt | pIC50 |
| --- | --- | --- |
| C[C@H](c1cccnc1N)N(CC#N)c1nc(OC[C@@]23CCCN2C[C@H](F)C3)nc(N2CC3(C2)SCc2sc(N)c(C#N)c23)n1 [Compound 246] | GST-tagged KRAS-G12V (2-169) (Homo sapiens, UniProt P01116, G12V) | > 8.00 |
| CCN(c1nc(OCC23CCCN2CCC3)nc(N2CC3(C2)SCc2sc(N)c(C#N)c23)n1)[C@H](C)c1cccnc1N [Compound 206] | GST-tagged KRAS-G12V (2-169) (Homo sapiens, UniProt P01116, G12V) | > 8.00 |
| N#Cc1c(N)sc2c1C1(CC2)CN(c2nc(OC[C@@]34CCCN3C[C@H](F)C4)nc(N3CCC[C@H](C#N)[C@@H]3CO)n2)C1 (racemic) [Compound 63] | GST-tagged KRAS-G12V (2-169) (Homo sapiens, UniProt P01116, G12V) | 6.00 to 7.00 |
| CC(c1cccnc1N)N(C)c1nc(OC[C@@]23CCCN2C[C@H](F)C3)nc(N2CC3(C2)SCc2sc(N)c(C#N)c23)n1 (single isomer, unassigned) [Compound 120B] | GST-tagged KRAS-G12V (2-169) (Homo sapiens, UniProt P01116, G12V) | > 8.00 |
| N#Cc1c(N)sc2c1C1(CN(c3nc(OC[C@@]45CCCN4C[C@H](F)C5)nc(N4CCC5(CCN5C(=O)n5cncn5)C4)n3)C1)SC2 (stereo partly shown) [Compound 248] | GST-tagged KRAS-G12V (2-169) (Homo sapiens, UniProt P01116, G12V) | 4.70 to 6.00 |

Give me measured pIC50, please, for this molecule: N#Cc1c(N)sc2c1C1(CC2)CN(c2nc(OC[C@@]34CCCN3C[C@H](F)C4)nc(N(CCO)Cc3cc[nH]n3)n2)C1 [Compound 131]
7.00 to 8.00

Complete the entry with pIC50 for N#Cc1c(N)sc2c1C1(CN(c3nc(OC[C@@]45CCCN4C[C@H](F)C5)nc(N4CC5CC(=O)CC(C4)N5)n3)C1)SC2 [Compound 277]
> 8.00

Please give measured pIC50 of the following entry: C[C@H](c1cccnc1N)N(C)c1nc(OC[C@@]23CCCN2C[C@H](F)C3)nc(N2CCC(c3c(Cl)sc(N)c3C#N)C2)n1 (stereo partly shown) [Compound 191]
> 8.00

Give pIC50 for the following molecule: C[C@]1(CO)C[C@@H](O)CN1c1nc(OC[C@@]23CCCN2C[C@H](F)C3)nc(N2CC3(CCc4sc(N)c(C#N)c43)C2)n1 [Compound 58]
7.00 to 8.00

For the molecule C[C@@]1(O)CCCN(c2nc(OCC3(CN4CCOCC4)CC3)nc(N3CC4(C3)c3c(sc(N)c3C#N)CC4(F)F)n2)C1 [Compound 98] , report pIC50.
> 8.00

====

# tgt: GST-tagged KRAS-G12D (2-169) (Homo sapiens, UniProt P01116, G12D)
# assay comment: Nucleotide exchange assay (NEA), SOS-mediated, HTRF, KRAS G12D
# Assay type: biochemical
# details: Table 4; IC50 extracted at 30 min; 20 nM SOScat; read-out: NEA G12D IC50
Each item that follows carries a reported IC50.

Below are worked cases with known answers.
| compound | result |
| --- | --- |
| N#Cc1c(N)sc2c1C1(CC2)CN(c2nc(OC[C@@]34CCCN3C[C@H](F)C4)nc(N3CCC[C@@H](O)C3)n2)C1 | 100 to 1000 nM |
| N#Cc1c(N)sc2c1C1(CC2)CN(c2nc(OC[C@@]34CCCN3C[C@H](F)C4)nc(N3CCC[C@H](C#N)[C@@H]3CO)n2)C1 (racemic) | 100 to 1000 nM |
| CCN(c1nc(OCCN2CCCCC2)nc(N2CC3(C2)SCc2sc(N)c(C#N)c23)n1)[C@H](C)c1cccnc1N | 10 to 100 nM |
| C[C@@]1(O)C[C@@H](F)CN(c2nc(OC[C@@]34CCCN3C[C@H](F)C4)nc(N3CC4(C3)SCc3sc(N)c(C#N)c34)n2)C1 | < 10 nM |
| CCN(c1nc(OCC2(CN(C)C)CCCN2)nc(N2CC3(C2)SCc2sc(N)c(C#N)c23)n1)[C@H](C)c1cccnc1N (stereo partly drawn) | 10 to 100 nM |

Find the measured IC50 of CC(c1nccnc1N)N(C)c1nc(OC[C@@]23CCCN2C[C@H](F)C3)nc(N2CC3(CCc4sc(N)c(C#N)c43)C2)n1 (single isomer, unassigned) [Compound 116A] with GST-tagged KRAS-G12D (2-169) (Homo sapiens, UniProt P01116, G12D) as test system.
< 10 nM
